Each entry below carries its reported Binding Ratio (Sample over unstained MFIs).
# system under test: T1, human IL-2Rγ endogenously expressed on NK-92 and Jurkat cells (human, UniProt P31785 23-369)
# T1 construct: whole, on cells; on cells it stands with the other receptor subunits of the cell line; also called IL-2Rg; CD132
# T1 sequence (looked up): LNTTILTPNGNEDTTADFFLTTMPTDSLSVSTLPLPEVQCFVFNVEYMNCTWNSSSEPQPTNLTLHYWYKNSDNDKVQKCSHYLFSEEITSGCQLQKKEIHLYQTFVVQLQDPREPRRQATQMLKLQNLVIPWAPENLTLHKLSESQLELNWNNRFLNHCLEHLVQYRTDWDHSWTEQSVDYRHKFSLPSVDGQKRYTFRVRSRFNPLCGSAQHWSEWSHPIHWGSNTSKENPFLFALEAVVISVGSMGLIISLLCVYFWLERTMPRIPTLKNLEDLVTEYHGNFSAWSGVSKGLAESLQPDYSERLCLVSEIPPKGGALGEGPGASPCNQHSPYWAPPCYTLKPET
# test description: flow cytometry, 10 ug/ml antibody, Jurkat cells (endogenous human IL-2Rg)
value type: Binding Ratio (Sample over unstained MFIs)

# binder, experimental value
measured = [
    ("H4H12858P (antibody, human IgG4 S228P, kappa, V domains shown, fully human anti-IL2Rg antibody, human IgG4; also called REGN9433) VH: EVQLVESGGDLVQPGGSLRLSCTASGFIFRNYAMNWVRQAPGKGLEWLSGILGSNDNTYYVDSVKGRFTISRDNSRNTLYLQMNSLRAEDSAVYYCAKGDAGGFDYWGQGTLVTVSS VL: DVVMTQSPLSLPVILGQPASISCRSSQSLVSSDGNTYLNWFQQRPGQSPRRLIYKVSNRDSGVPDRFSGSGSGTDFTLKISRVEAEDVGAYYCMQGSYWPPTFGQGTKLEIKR", 1),
    ("H4H12900P (antibody, human IgG4 S228P, kappa, V domains shown, fully human anti-IL2Rg antibody, human IgG4) VH: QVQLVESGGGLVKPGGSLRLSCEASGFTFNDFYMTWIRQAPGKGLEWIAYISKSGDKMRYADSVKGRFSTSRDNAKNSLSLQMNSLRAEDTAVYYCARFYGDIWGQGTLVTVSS VL: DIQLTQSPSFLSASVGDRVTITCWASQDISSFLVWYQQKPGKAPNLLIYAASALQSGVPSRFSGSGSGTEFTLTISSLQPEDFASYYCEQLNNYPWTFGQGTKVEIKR", 1),
    ("H4H12863P (antibody, human IgG4 S228P, kappa, V domains shown, fully human anti-IL2Rg antibody, human IgG4) VH: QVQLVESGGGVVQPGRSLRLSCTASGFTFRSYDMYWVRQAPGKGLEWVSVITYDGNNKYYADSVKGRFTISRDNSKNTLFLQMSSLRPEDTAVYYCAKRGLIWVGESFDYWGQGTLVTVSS VL: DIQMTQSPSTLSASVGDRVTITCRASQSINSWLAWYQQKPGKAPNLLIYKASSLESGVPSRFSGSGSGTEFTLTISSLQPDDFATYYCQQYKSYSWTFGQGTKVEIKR", 13),
    ("H4H12899P (antibody, human IgG4 S228P, kappa, V domains shown, fully human anti-IL2Rg antibody, human IgG4) VH: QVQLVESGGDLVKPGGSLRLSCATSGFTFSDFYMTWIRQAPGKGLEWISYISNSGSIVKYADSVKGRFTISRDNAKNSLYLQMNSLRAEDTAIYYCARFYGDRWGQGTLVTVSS VL: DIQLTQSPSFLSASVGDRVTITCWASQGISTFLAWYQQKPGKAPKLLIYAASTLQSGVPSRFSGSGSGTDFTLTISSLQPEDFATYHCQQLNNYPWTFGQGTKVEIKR", 1),
]

The measured values listed here are drawn from patent US20200247894A1.
